Parameter: log10 GI50. Scope: all listed entries.
# Test Target: Ba/F3 L858R/T790M/C797S EGFR triple mutant cell line (Homo sapiens, UniProt P00533, T790M/C797S/L858R, cells depend on it)
# Sequence (P00533 whole entry T790M/C797S/L858R): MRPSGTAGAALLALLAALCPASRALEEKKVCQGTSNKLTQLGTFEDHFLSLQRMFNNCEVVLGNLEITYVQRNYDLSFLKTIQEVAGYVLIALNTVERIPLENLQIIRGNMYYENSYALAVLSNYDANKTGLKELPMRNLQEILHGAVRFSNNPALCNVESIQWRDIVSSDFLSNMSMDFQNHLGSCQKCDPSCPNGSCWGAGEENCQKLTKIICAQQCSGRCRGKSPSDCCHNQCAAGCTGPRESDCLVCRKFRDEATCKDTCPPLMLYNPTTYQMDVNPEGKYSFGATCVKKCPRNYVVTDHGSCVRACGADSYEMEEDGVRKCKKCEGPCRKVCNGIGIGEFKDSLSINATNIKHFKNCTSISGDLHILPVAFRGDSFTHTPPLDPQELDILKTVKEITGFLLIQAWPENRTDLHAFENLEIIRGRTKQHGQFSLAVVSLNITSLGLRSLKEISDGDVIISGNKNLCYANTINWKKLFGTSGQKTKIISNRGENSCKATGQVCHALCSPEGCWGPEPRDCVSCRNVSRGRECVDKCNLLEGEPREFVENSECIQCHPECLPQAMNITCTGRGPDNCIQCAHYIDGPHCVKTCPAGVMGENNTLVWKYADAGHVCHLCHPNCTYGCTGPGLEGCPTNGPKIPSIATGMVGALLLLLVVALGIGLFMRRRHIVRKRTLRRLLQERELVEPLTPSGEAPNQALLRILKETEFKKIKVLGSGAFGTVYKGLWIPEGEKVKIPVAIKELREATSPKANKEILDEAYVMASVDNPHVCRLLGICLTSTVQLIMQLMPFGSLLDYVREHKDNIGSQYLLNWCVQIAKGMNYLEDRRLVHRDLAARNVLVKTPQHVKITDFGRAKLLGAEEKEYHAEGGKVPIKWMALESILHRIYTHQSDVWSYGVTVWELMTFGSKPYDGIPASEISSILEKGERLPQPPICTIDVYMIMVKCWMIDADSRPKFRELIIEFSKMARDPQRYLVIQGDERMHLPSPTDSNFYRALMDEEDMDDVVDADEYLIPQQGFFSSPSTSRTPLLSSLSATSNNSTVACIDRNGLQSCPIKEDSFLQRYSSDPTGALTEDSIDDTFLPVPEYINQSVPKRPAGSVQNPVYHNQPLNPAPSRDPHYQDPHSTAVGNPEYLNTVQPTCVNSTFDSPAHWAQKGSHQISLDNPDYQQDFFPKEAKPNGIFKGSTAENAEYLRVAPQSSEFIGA
# Assay Info: Cell proliferation inhibition experiment (CellTiter-Glo), Ba/F3 L858R/T790M/C797S
# Assay type: cell-based
# Condition: 72 hours, Cell Titer-Glo, read-out: Ba/F3 (L858R/T790M/C797S) IC50
The base-10 logarithm of GI50, taken with GI50 in nM, is what appears here.

1) COc1nc(N2CCOCC2)c(-c2cn(C)nc2C)cc1Nc1ncc(Br)c(Nc2ccc3nccnc3c2P(C)(C)=O)n1
1.82
2) COc1cc(N2CCC3(CN(C)CCO3)C2)c(-c2cnn(C)c2)cc1Nc1ncc(Br)c(Nc2ccc3nccnc3c2P(C)(C)=O)n1 (stereo not drawn)
0.74
3) COc1cc(N2CCC3(CC2)CN(C(C)C)CC(C)(C)O3)c(-c2cnn(C)c2)cc1Nc1ncc(Br)c(Nc2ccc3nccnc3c2P(C)(C)=O)n1
1.12
4) COc1cc(N2CCC3(CCOCC3)CC2)c(-c2cnn(C)c2)cc1Nc1ncc(Br)c(Nc2ccc3nccnc3c2P(C)(C)=O)n1
0.75
5) Cn1cc(-c2cc3c(c(Nc4ncc(Br)c(Nc5ccc6nccnc6c5P(C)(C)=O)n4)c2)OCC3)cn1
0.99

Let's switch to this molecule now.
Ask: Reported log10 GI50 for COc1cc(N2CC[C@@H]3CCN(CC4CC4)[C@@H]3C2)c(-c2cnn(C)c2)cc1Nc1ncc(Br)c(Nc2ccc3nccnc3c2P(C)(C)=O)n1 (single isomer, unassigned) [234b] : what is it?
Reply: 0.75

----------
Documented IC50 across a set of compounds
# Test Target: L858R/T790M/C797S triple mutant EGFR (Homo sapiens, UniProt P00533, C797S/L858R/T790M)
# Construct: purchased Signalchem
# Assay Info: Enzymology experiment in vitro (HTRF/FRET kinase activity), L858R/T790M/C797S triple mutant EGFR
# Format: biochemical
# Condition: HTRF KinEASE-TK, read-out: EGFR (L858R/T790M/C797S) IC50
Hi! Could you send only the number? It should be in nM, unit omitted.

In the examples that follow, each entry is paired with its recorded IC50.
1) COc1cc(N2CCN(C3CC3)CC2)c(-c2cnn(C)c2)cc1Nc1ncc(Br)c(Nc2ccc3nccnc3c2P(C)(C)=O)n1 [compound 102]
0.23
2) COc1c(Nc2ncc(Br)c(Nc3ccc4nccnc4c3P(C)(C)=O)n2)cc(-c2cnn(C)c2)c(N2CCOCC2)c1F [compound 23]
1.92
3) COc1cc(N2CCCN(C)CC2)c(-c2cnn(C)c2)cc1Nc1ncc(Br)c(Nc2ccc3nccnc3c2P(C)(C)=O)n1 [compound 12]
0.05

Ask: # lookup: IC50 of COc1cc(N2CCN(CCF)CC2)c(-c2cnn(C)c2)cc1Nc1ncc(Br)c(Nc2cc3c(cc2P(C)(C)=O)CC3)n1 [compound 138]
Reply: 0.53

----------
# Test Target: Ba/F3 De119/T790M/C797S EGFR triple mutant cell line (Homo sapiens, UniProt P00533, T790M/C797S, cells depend on it, form not given)
# Sequence (P00533 with tags, fused parts or gaps DEL746-750/T790M/C797S, form open): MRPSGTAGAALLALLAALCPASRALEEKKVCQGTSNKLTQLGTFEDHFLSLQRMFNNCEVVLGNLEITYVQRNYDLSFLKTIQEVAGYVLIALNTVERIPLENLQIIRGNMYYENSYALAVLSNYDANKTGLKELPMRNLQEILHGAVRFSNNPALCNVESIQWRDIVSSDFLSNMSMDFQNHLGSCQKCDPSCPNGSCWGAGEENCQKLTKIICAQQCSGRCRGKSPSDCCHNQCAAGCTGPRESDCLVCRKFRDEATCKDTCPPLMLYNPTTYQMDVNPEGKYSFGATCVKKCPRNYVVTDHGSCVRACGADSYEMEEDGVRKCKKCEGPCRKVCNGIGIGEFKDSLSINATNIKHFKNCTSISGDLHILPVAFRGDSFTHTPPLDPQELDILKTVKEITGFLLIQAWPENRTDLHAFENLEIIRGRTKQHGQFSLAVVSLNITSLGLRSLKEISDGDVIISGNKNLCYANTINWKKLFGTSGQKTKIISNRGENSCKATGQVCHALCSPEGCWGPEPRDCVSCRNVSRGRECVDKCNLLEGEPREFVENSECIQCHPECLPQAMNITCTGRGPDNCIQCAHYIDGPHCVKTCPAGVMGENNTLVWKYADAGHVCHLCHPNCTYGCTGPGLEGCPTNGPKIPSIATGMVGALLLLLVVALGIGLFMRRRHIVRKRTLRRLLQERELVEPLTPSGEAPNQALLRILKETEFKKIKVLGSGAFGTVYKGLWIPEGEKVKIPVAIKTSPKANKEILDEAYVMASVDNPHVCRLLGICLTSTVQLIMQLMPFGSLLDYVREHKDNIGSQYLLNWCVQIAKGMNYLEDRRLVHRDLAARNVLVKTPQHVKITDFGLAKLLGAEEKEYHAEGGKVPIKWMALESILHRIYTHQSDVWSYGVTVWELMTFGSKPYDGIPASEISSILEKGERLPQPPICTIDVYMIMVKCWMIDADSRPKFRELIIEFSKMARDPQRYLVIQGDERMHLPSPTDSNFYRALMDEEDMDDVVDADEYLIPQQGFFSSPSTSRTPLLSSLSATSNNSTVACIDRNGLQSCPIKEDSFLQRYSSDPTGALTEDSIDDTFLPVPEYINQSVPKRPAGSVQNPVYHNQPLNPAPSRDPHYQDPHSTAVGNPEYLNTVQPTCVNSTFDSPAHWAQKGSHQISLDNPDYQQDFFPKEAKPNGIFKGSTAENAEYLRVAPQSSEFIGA
# Assay Info: Cell proliferation inhibition experiment (CellTiter-Glo), Ba/F3 De119/T790M/C797S
# Assay type: cell-based
# Condition: Ba/F3 Del19/T790M/C797S EGFR triple mutant cells, 72 hours, Cell Titer-Glo; read-out: Ba/F3 (Del19/T790M/C797S) IC50
Please assign F whenever GI50 is at or above 3 nM, and T whenever it is below.

Solved entries:
1) COc1cc(N2CCC3(CN(C)CCO3)C2)c(-c2cnn(C)c2)cc1Nc1ncc(Br)c(Nc2ccc3nccnc3c2P(C)(C)=O)n1 (stereo not drawn)
T
2) COc1cc(N2CCC(C)(O)CC2)c(-c2cnn(C)c2)cc1Nc1ncc(Br)c(Nc2ccc3nccnc3c2P(C)(C)=O)n1
T
3) COc1cc(N2CCOC[C@H]2C)c(-c2cnn(C)c2)cc1Nc1ncc(Br)c(Nc2ccc3nccnc3c2P(C)(C)=O)n1
F
4) COc1cc(N2CCOCC2)c(-c2cn[nH]c2)cc1Nc1ncc(C)c(Nc2ccc3nccnc3c2P(C)(C)=O)n1
F

Continue with the compound presented below.
Ask: Say whether its GI50 is strictly beneath 3 nM. Entry: COc1cc(N2CCC(N3CCOCC3)CC2)c(-c2cnn(C)c2)cc1Nc1ncc(Br)c(Nc2ccc3nccnc3c2P(C)(C)=O)n1 [compound 129]
Reply: T

----------
# Test Target: Ba/F3 L858R/T790M/C797S EGFR triple mutant cell line (Homo sapiens, UniProt P00533, T790M/C797S/L858R, cells depend on it)
# Assay Info: Cell proliferation inhibition experiment (CellTiter-Glo), Ba/F3 L858R/T790M/C797S
# Type: cell-based
# Condition: 72 hours, Cell Titer-Glo, read-out: Ba/F3 (L858R/T790M/C797S) IC50
# GI50 per record follows

Ask: Query (compound): COc1cc(N2CCC3CCN(CC4CC4)C3C2)c(-c2cnn(C)c2)cc1Nc1ncc(Br)c(Nc2ccc3nccnc3c2P(C)(C)=O)n1 (single isomer, unassigned) [234a] ; field requested: GI50
Reply: 3.91 nM

Ask: Endpoint output: GI50 of COc1cc(N2CCOCC2)c(-c2cnn(C)c2)cc1Nc1ncc(Br)c(Nc2ccc3nccnc3c2N(C)S(C)(=O)=O)n1 . Value?
Reply: 7.23 nM

Ask: What does the record list as GI50 for COc1cc(N2CCC3CCN(CCOC(C)C)C3C2)c(-c2cnn(C)c2)cc1Nc1ncc(Br)c(Nc2ccc3nccnc3c2P(C)(C)=O)n1 (stereo not drawn) ?
Reply: 30.2 nM

Ask: Consider the compound COc1cc(C2CCOCC2)c(-c2cnn(C)c2)cc1Nc1ncc(Br)c(Nc2ccc3nccnc3c2P(C)(C)=O)n1 and give its measured GI50.
Reply: 19.2 nM

Ask: # query: GI50 of entry COc1cc(N2CCOCC2)c(-c2cnn(C)c2)cc1Nc1ncc(Br)c(Nc2ccc3nccnc3c2NS(C)(=O)=O)n1
Reply: 3.81 nM

Ask: Which GI50 value is on record for COc1cc(N2CCC(F)CC2)c(-c2cnn(C)c2)cc1Nc1ncc(Br)c(Nc2ccc3nccnc3c2P(C)(C)=O)n1 ?
Reply: 7.93 nM

----------
# Test Target: L858R/T790M/C797S triple mutant EGFR (Homo sapiens, UniProt P00533, C797S/L858R/T790M)
# Construct: purchased Signalchem
# Assay Info: Enzymology experiment in vitro (HTRF/FRET kinase activity), L858R/T790M/C797S triple mutant EGFR
# Type: biochemical
# Condition: HTRF KinEASE-TK, read-out: EGFR (L858R/T790M/C797S) IC50
Recorded Endpoint: IC50 (nM)
Provide the reading as a plain figure in nM.

1) COc1cc(N2CCC3(CCN(C)CC3)CC2)c(-c2cnn(C)c2)cc1Nc1ncc(Br)c(Nc2ccc3nccnc3c2P(C)(C)=O)n1
0.18

Ask: Returns the measured IC50 for the input compound. Input: COc1cc(N2CCOCC2)c(-c2cnn(C)c2)cc1Nc1ncc(Br)c(Nc2ccccc2NS(=O)(=O)C2CC2)n1
Reply: 0.53

Ask: // IC50 lookup, key: COc1cc(N2CCC3(CC2)CCN(C(C)(C)CF)CC3)c(-c2cnn(C)c2)cc1Nc1ncc(Br)c(Nc2ccc3nccnc3c2P(C)(C)=O)n1
Reply: 0.54

----------
# Test Target: Ba/F3 L858R/T790M/C797S EGFR triple mutant cell line (Homo sapiens, UniProt P00533, T790M/C797S/L858R, cells depend on it)
# Assay Info: Cell proliferation inhibition experiment (CellTiter-Glo), Ba/F3 L858R/T790M/C797S
# Assay type: cell-based
# Condition: 72 hours, Cell Titer-Glo, read-out: Ba/F3 (L858R/T790M/C797S) IC50
Measured GI50 by item

Some molecules with known GI50 results, for comparison:
1. COC[C@@H]1CN(c2cc(OC)c(Nc3ncc(Br)c(Nc4ccc5nccnc5c4P(C)(C)=O)n3)cc2-c2cnn(C)c2)CCO1
4.18 nM
2. COc1cc(N2CCC3(CC2)COCCN3C)c(-c2cnn(C)c2)cc1Nc1ncc(Br)c(Nc2cc3c(cc2N(C)S(C)(=O)=O)CC3)n1
14.6 nM
3. COc1cc(N2CCN(CCO)CC2)c(-c2cnn(C)c2)cc1Nc1ncc(Br)c(Nc2ccc3nccnc3c2P(C)(C)=O)n1
104 nM
4. COc1cc(N2CCC(N3CC(F)C3)CC2)c(-c2cnn(C)c2)cc1Nc1ncc(Br)c(Nc2ccc3nccnc3c2P(C)(C)=O)n1
4.11 nM
5. COc1cc(N2CCOCC2)c(-c2cnn(C)c2)cc1Nc1ncc(Br)c(Nc2cc3c(cc2N(C)S(C)(=O)=O)CC3)n1
2.93 nM
6. COc1cc(N2CCC3(CC2)CO[C@@H](C)[C@@H]3N(C)C)c(-c2cnn(C)c2)cc1Nc1ncc(Br)c(Nc2ccc3nccnc3c2P(C)(C)=O)n1 (stereo in doubt)
3.7 nM
7. COc1cc(N2C[C@H]3C[C@@H]2CO3)c(-c2cnn(C)c2)cc1Nc1ncc(Br)c(Nc2ccc3nccnc3c2P(C)(C)=O)n1
11.2 nM
8. COc1cc(C2=CCN(C)CC2)c(-c2cnn(C)c2)cc1Nc1ncc(Br)c(Nc2ccc3nccnc3c2P(C)(C)=O)n1
35 nM
9. COc1cc(N2CCC(N3CCN(CC(F)F)CC3)CC2)c(-c2cnn(C)c2)cc1Nc1ncc(Br)c(Nc2ccc3nccnc3c2P(C)(C)=O)n1
3.47 nM
10. COc1cc(N2CCOCC2)c(-c2cnn(C)c2)cc1Nc1ncc(Br)c(Nc2ccccc2P(C)(C)=O)n1
17.5 nM

Ask: Need GI50 of COc1cc(N2CCN(CCF)CC2)c(-c2cnn(C)c2)cc1Nc1ncc(Br)c(Nc2cc3c(cc2P(C)(C)=O)CC3)n1 , thanks.
Reply: 11.9 nM

The reported measurements were obtained from patent US20230219986A1.
